Values from PubChem BioAssay (NCI)

Tested on: UO-31 renal
PROTOCOL: NCI tumour cell line growth inhibition, 48 h
OBSERVABLE: TGI

Guide cases for TGI, answers given:
> print(dat)
                                   compound  observable  recorded.measurement
1  O=C1CC(c2ccccc2)Oc2ccccc21 (stereo unspecified)         TGI              > 100 µM
2  O=c1oc2ccccc2c(O)c1Cc1ccc(Cc2c(O)c3ccccc3oc2=O)cc1         TGI              > 100 µM
3  COc1ccc(C2Oc3ccc(Cl)cc3C=C2[N+](=O)[O-])cc1 (stereo unspecified)         TGI              > 100 µM
4                       O=c1ccc2ccc(S)cc2o1         TGI              > 100 µM
5  C[C@@H]1CC[C@@]2(C)C(C(=O)O)=CCCC2[C@@]1(C)CC(=O)c1ccoc1 (stereo partly specified)         TGI               > 25 µM

Given "COc1ccc(C(=O)c2cc(OC)c(OC)c(OC)c2OC)cc1O" , report its TGI on UO-31 renal.
> 100 µM

Please report TGI with UO-31 renal for item Cc1ccc2c(c1C)C(=O)C1(Cc3cc4c(cc3C1=O)CCC4)C2 (stereo unspecified) .
> 100 µM

Quote UO-31 renal TGI for entry [N-]=[N+]=CC(=O)C1CCCN1C(=O)c1ccccc1 (stereo unspecified) .
> 10 µM

# return TGI for O=[N+]([O-])c1cccc(C2=NN(c3ccccc3)C3c4cc(Br)ccc4OCC23)c1 (stereo unspecified) , test system: UO-31 renal
> 100 µM

State, for UO-31 renal, measured TGI of the compound listed here: "CC1=NN(C(=O)Cc2ccccc2)C(=O)/C1=C\c1ccc(O)cc1"
> 100 µM

Please report TGI with UO-31 renal for item "O=C1NC2=C(CCCCC/C2=N\O)C12CCCCCC2" .
> 100 µM

====

System: DU-145 prostate
PROTOCOL: NCI tumour cell line growth inhibition, 48 h
In this section, each of the compounds is paired with its reported TGI.

Worked set:
COMPOUND	TGI
CN(CCN1CCCC1)C1CCc2cc(Cl)c(Cl)cc2C1 (configuration not stated)	26 µM
O=C(NCc1ccccc1)c1cc2ccccc2oc1=Nc1cccc(C(F)(F)F)c1	> 100 µM
Cn1nc(-c2ccc(S(=O)(=O)/N=C(\NN)Nc3ccc(Cl)cc3)s2)cc1C(F)(F)F	30.8 µM
CN[C@@H](C)C(=O)N[C@H]1CN(S(=O)(=O)c2cccc(S(=O)(=O)N3CC[C@H]4CC[C@@H](C(=O)NC(c5ccccc5)c5ccccc5)N4C(=O)[C@@H](NC(=O)[C@H](C)NC)C3)c2)CC[C@H]2CC[C@@H](C(=O)NC(c3ccccc3)c3ccccc3)N2C1=O	28.3 µM
CCOC1C=CC(=O)C(CO)O1 (configuration not stated)	31.2 µM
c1ccc(-c2[nH]ncc2-c2ccnc(-c3ccc(OCCn4ccnc4)cc3)c2)nc1	> 25 µM

Please supply the value of reported TGI for the item "O=C1Oc2ccccc2C(=O)/C1=C1/C=C(c2ccccc2)SS1"
> 100 µM

Consider the compound "COc1ccc2c(c1)C(=O)c1c-2c(Nc2ccccc2OC)nc2ccccc12" . State its measured TGI.
> 100 µM

Please give measured TGI of the following entry: "c1c[nH]c(-c2cccc3nsnc23)c1"
> 100 µM

Please list TGI recorded for the compound "NCCN1CCCCCc2ccccc21"
> 10 µM

Given the compound "O=C1C=C[C@H](O)[C@@]2(CO)O[C@@H]12" , write its reported TGI.
27.4 µM

Return TGI for the following compound: Nc1nc2c(c3cnccc13)C(c1ccc(Cl)c(Cl)c1)Cc1cnccc1-2 (configuration not stated)
11.2 µM

====

System: NCI-H522 lung
PROTOCOL: NCI tumour cell line growth inhibition, 48 h
OBSERVABLE: TGI (µM)
Numbers only; they are read as µM.

These solved cases illustrate the format of a correct answer.
COMPOUND	TGI (µM)
COCC([C@@H](O)C(O)C(=O)NCC[C@@H](C)c1nc(/C=C/CC2OC3(C[C@H](O)C2C)OC(C(C[C@H](O)C(C)[C@H](O)C(C)/C=C(C)/C(C)=C/C=C/C(C)=C/C#N)OC)[C@@H](OP(=O)(O)O)C3(C)C)co1)N(C)C (stereo partly specified)	0.000308
CN(C)CCn1c(=O)c2ccc(NCCCN(C)CCCNc3ccc4c(=O)n(CCN(C)C)c(=O)n5c6ccc(O)cc6c(=O)c3c45)c3c(=O)c4cc(O)ccc4n(c1=O)c23	0.0802

Next:
Please respond with reported TGI (system NCI-H522 lung) for "COc1cc2ccc3c4cc(OC)c(OC)cc4c[n+](C)c3c2cc1O" .
78.7

====

Tested on: CCRF-CEM leukemia
PROTOCOL: NCI tumour cell line growth inhibition, 48 h
OBSERVABLE: TGI

> print(dat)
                                   compound  recorded.measurement
1  Nc1nc2c(c3cnccc13)C(c1ccc(Cl)c(Cl)c1)Cc1cnccc1-2 (stereo not drawn)               12.6 µM
2  O=c1oc2ccccc2c(O)c1Cc1ccc(Cc2c(O)c3ccccc3oc2=O)cc1              > 100 µM
3  CCN1C(=S)N(CC)C2C1NC(=S)N2/N=C/C=C/c1ccccc1OC (stereo not drawn)              > 100 µM
4  OCc1ccc2c(c1)CC1(C2)Cc2cc3c(cc2C1O)CCC3 (stereo not drawn)             > 44.9 µM
5  N#CC(C(=O)C(=O)Nc1c(Cl)cccc1Cl)c1ccccc1 (stereo not drawn)              > 100 µM

// fetch TGI; item: "O=CC(I)=C(c1ccccc1)c1ccccc1" ; system: CCRF-CEM leukemia
> 69.9 µM

Write down measured TGI (CCRF-CEM leukemia) for this compound. "c1ccc(-c2[nH]ncc2-c2ccnc(-c3ccc(OCCn4ccnc4)cc3)c2)nc1"
> 25 µM

Look up CCRF-CEM leukemia data: TGI of "CSC1=Nc2c(c(C)c(C)n2COC(CO)CO)C2=NC(=O)CN12" , then report it.
> 100 µM

Recall the reported TGI of "Cc1ccccc1-c1nc2c(N)nc(N)nc2nc1N" on CCRF-CEM leukemia and write it down.
> 100 µM

State TGI on CCRF-CEM leukemia. Entry: "c1ccc(-c2c(-c3ccccc3)[n+](Cc3ccc4ccccc4c3)c(-c3ccc(-c4nc5ccccc5s4)cc3)n2Cc2ccc3ccccc3c2)cc1"
> 41.5 µM

====

// reported GI50 per item
System: MOLT-4 leukemia
PROTOCOL: NCI tumour cell line growth inhibition, 48 h

Some solved entries appear below for comparison.
> print(dat)
                                        mol  recorded.measurement
1  COc1ccc(C(=O)c2cc(OC)c(OC)c(OC)c2OC)cc1O               4.56 µM
2  CC1(C)N=C(N)N=C(N)N1c1ccc(CCC(=O)Nc2ccc(S(=O)(=O)F)cc2)cc1               4.62 µM

Query GI50 for "OC1(c2ccc(Cl)c(C(F)(F)F)c2)CCN(CCCC(c2ccc(F)cc2)c2ccc(F)cc2)CC1"
1.03 µM

====

System: PC-3 prostate
PROTOCOL: NCI tumour cell line growth inhibition, 48 h
// TGI lookup, one value per entry

Reference set (4 entries):
COMPOUND	RECORDED MEASUREMENT
COC1OC(C)C(NC(=O)OCC(Cl)(Cl)Cl)C2OC(C)(C)OC12 (configuration not stated)	> 100 µM
CN(C)CCN(c1ccccn1)c1ccccn1	> 100 µM
CCN1C(=S)N(CC)C2C1NC(=S)N2/N=C/C=C/c1ccccc1OC (configuration not stated)	> 100 µM
CC1CC(N2CCOCC2)=Nc2ccccc2N1C (configuration not stated)	> 100 µM

Give reported TGI for "COc1ccc2sc3c(NCCCN)nc4ccccc4c3c(=O)c2c1" (PC-3 prostate)
3.05 µM

Give the observed TGI of "NC1=CC(=O)c2c(O)ccc(O)c2C1=O" for PC-3 prostate.
> 90.6 µM

Report value only: TGI, PC-3 prostate, COc1cccc(C2c3cc4c(cc3OC(O)C2C)OCO4)c1OC (configuration not stated)
32.1 µM

Answer briefly: TGI recorded on PC-3 prostate for "O=CC(I)=C(c1ccccc1)c1ccccc1"
29.3 µM

State TGI on PC-3 prostate. Entry: CN(C)C(=O)C(F)(F)C(c1ccc(F)cc1)C1C(=O)N(C)C(=O)N(C)C1=O (configuration not stated)
> 100 µM

====

Test system: HCC-2998 colon
PROTOCOL: NCI tumour cell line growth inhibition, 48 h
OBSERVABLE: TGI

> print(dat)
                                        mol     test.system  recorded.measurement
1  O=c1oc2ccccc2c(O)c1Cc1ccc(Cc2c(O)c3ccccc3oc2=O)cc1  HCC-2998 colon              > 100 µM

Item "O=[N+]([O-])c1ccc(C[P+]2(c3ccccc3)CCCCC2)cc1" : provide TGI
> 100 µM

Return value of TGI for input "CN(C)c1nc(Oc2nc(N(C)C)nc(N(C)C)n2)nc(N(C)C)n1" , no commentary.
> 100 µM
